Assay: physchem
Settings: octanol/water
Description: Octanol-water partition coefficient, log P of the compound

| Item Smiles | logP |
| --- | --- |
| CC(=O)Oc1ccc(/C=C/C(=O)N(SC(F)(F)F)c2cccc3c(S(=O)(=O)Nc4ccc(S(=O)(=O)C(F)(F)F)cc4)cccc23)cc1OC(C)=O | 7.16 |
| O=C(/C=C/c1ccc(O)c(O)c1)Nc1cccc2c(S(=O)(=O)Nc3cccc([N+](=O)[O-])c3)cccc12 | 4.57 |
| CC(=O)Oc1ccc(/C=C/C(=O)Nc2cccc3c(S(=O)(=O)Nc4ccccc4C(C)C)cccc23)cc1OC(C)=O | 4.86 |
| CCN(c1ccccc1)S(=O)(=O)c1cccc2c(N(C(=O)/C=C/c3ccc(OC(C)=O)c(OC(C)=O)c3)c3ccccc3)cccc12 | 6.18 |
| CC(=O)Oc1ccc(/C=C/C(=O)N(c2cccc3c(S(=O)(=O)Nc4cccc(C(F)(F)F)c4)cccc23)C(F)(F)F)cc1OC(C)=O | 6.54 |
| Cc1ccc(NS(=O)(=O)c2cccc3c(NC(=O)/C=C/c4ccc(O)c(O)c4)cccc23)cc1 | 4.13 |
| CC(=O)Oc1ccc(/C=C/C(=O)Nc2cccc3c(S(=O)(=O)Nc4cccc(C(C)C)c4)cccc23)cc1OC(C)=O | 4.86 |
